Provenance of the data: BindingDB's records for doi:10.7270/Q2V40SNS

system.tested: Ras-related protein Rab-2A (Canis lupus familiaris)
Sequence (P61105 whole entry): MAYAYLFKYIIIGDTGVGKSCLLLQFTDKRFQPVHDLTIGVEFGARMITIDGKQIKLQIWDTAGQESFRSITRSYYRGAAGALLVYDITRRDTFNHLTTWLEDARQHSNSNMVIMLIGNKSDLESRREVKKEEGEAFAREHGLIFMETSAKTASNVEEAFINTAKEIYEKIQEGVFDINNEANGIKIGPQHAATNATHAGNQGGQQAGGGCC
test.details: Rab2 wildtype GTP-binding inhibitors, SAR follow-up, biochemical, additional analogs, bead-based flow cytometry, multiplex (AID 2046)
test.context: inactive by the depositor's call
test.readout: pEC50
pEC50 is a log-scale quantity: -log10 of the concentration expressed in molar.

Query string: I am curious: what pEC50 value has been reported for `COC(=O)c1ccc(C(=O)C#Cc2ccccc2)cc1` ?
Result string: 4.52

Query string: Need pEC50 of `COc1ccc(-c2c(C#N)c(N)n(S(C)(=O)=O)c2C(=O)c2ccccc2)cc1Br` , thanks.
Result string: 4.52

Query string: Please look up its pEC50: `COc1ccc2cc(CC(=O)O)ccc2c1`
Result string: 4.52

Query string: Using the record for CC(C)Cc1ccc([C@H](C)C(=O)O)cc1 [(S)-2-(4-Isobutyl-phenyl)-propionic acid] , report its pEC50.
Result string: 4.52

Query string: // returns reported pEC50 for input `N#Cc1c(-c2ccc(Cl)cc2)c(C(=O)c2ccccc2)n(S(=O)(=O)c2ccc([N+](=O)[O-])cc2)c1N`
Result string: 4.52

Query string: // lookup pEC50 for `O=C(C#Cc1ccccc1)c1ccccc1`
Result string: 4.52

Query string: Given `CC(=O)Oc1ccccc1C(=O)O` , state its recorded pEC50.
Result string: 4.52

Query string: So what's the measured pEC50 for this one? `O=[N+]([O-])c1ccc(C#Cc2ccccc2)cc1`
Result string: 4.52

Query string: Which pEC50 is reported for this compound? `CSc1ccc(/C=C2/C(C)=C(CC(=O)O)c3cc(F)ccc32)cc1`
Result string: 4.52

Query string: What measured pEC50 goes with CC1=C(CC(=O)O)c2cc(F)ccc2/C1=C/c1ccc([S+](C)[O-])cc1 (stereo not given) ?
Result string: 4.52
